- experimental_system: CX3CR1 (Homo sapiens (Human), UniProt P49238)
- Sequence (P49238 whole entry): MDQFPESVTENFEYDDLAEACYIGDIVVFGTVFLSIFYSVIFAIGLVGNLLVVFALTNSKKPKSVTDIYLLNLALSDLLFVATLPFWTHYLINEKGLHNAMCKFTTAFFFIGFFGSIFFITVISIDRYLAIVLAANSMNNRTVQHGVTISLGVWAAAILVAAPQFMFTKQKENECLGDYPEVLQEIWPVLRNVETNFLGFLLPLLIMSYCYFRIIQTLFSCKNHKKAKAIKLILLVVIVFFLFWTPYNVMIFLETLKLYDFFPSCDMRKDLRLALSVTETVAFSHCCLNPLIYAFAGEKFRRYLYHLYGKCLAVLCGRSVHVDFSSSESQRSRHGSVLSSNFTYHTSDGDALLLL
- measurement_protocol: hCX3CR1 [3H]-AZD8797 competitive binding assay (filter)
- condition_label: CHO-hCX3CR1 membranes, 2 nM [3H]-AZD8797
reported_property: IC50 (nM)

- molecule: "Cc1cc(C(C)Cc2nc(N[C@@H](CO)CC(C)C)nc(NS(C)(=O)=O)n2)ccn1 (stereo partly shown)"
  IC50 / nM: 102

a. CC(C)C[C@H](CO)Nc1nc(CC(C)c2ccc3c(c2)CN(C)C(=O)C3)nc(NS(C)(=O)=O)n1 (stereo partly shown)
b. CC(C)C[C@H](CO)Nc1nc(CC(C)c2ccc(OCCN3CCOCC3)cc2)nc(NS(C)(=O)=O)n1 (stereo partly shown)
c. CC(C)C[C@H](CO)Nc1nc(C[C@H](C)c2cc(F)c(Cl)cc2F)nc(NS(C)(=O)=O)n1 (single isomer, unassigned)
Would you mind ranking these molecules by ascending IC50? Reply format: the labels, ordered as requested.
a, b, c

====

- experimental_system: CX3CR1 (Homo sapiens (Human))
- measurement_protocol: hCX3CR1 [3H]-AZD8797 competitive binding assay (filter)
- condition_label: CHO-hCX3CR1 membranes, 2 nM [3H]-AZD8797
pIC50: −log10 of the molar value.
reported_property: pIC50

I. CC(C)C[C@H](CO)Nc1nc(CC(C)c2ccc3c(c2)oc(=O)n3C)nc(NS(C)(=O)=O)n1 (stereo partly shown) [Example 100]
II. CC(C)C[C@H](CO)Nc1nc(CC(C)c2cc(O)c3c(c2)CCCC3)nc(NS(C)(=O)=O)n1 (stereo partly shown) [Example 104]
III. COc1cc(F)c([C@@H](C)Cc2nc(N[C@@H](CO)CC(C)C)nc(NS(C)(=O)=O)n2)cn1 (single isomer, unassigned) [Example 45]
Which order do the items above take when sorted by pIC50 from high to low? Output the labels ranked as instructed.
II, I, III
(II: 7.42, I: 6.80, III: 6.12)

A. CC(C)C[C@H](CO)Nc1nc(CC(C)c2ccc(CC#N)cc2)nc(NS(C)(=O)=O)n1 (stereo partly shown) [Example 55]
B. COc1ccc([C@H](C)Cc2nc(N[C@@H](CO)CC(C)C)nc(NS(C)(=O)=O)n2)c(F)c1 (single isomer, unassigned) [Example 81]
When the recorded pIC50 values are compared, which is smaller: that of A or that of B ? In your reply, give the label of the chosen option.
A

1. CC(C)C[C@H](CO)Nc1nc(CC(C)c2ccc(N3CCOCC3=O)cc2)nc(NS(C)(=O)=O)n1 (stereo partly shown) [Example 118]
2. CC(C)C[C@H](CO)Nc1nc(C[C@@H](C)c2ccc(F)c(F)c2F)nc(NS(C)(=O)=O)n1 (single isomer, unassigned) [Example 88]
Returns: the argument ( 1 or 2 ) having the larger pIC50. Kindly give the label for the entry you pick.
2

====

- experimental_system: CX3CR1 (Homo sapiens (Human))
- measurement_protocol: hCX3CR1 [3H]-AZD8797 competitive binding assay (filter)
- condition_label: CHO-hCX3CR1 membranes, 2 nM [3H]-AZD8797
pIC50: −log10 of the molar value.
reported_property: pIC50

Look over these answered cases.
- compound: "CC(C)C[C@H](CO)Nc1nc(C[C@H](C)c2ccc(F)c(F)c2F)nc(NS(C)(=O)=O)n1 (relative stereo)"
  pIC50: 6.73
- compound: "COc1cccc(C(C)Cc2nc(N[C@@H](CO)CC(C)C)nc(NS(C)(=O)=O)n2)c1O (stereo partly shown)"
  pIC50: 6.33
- compound: "COc1ccc([C@@H](C)Cc2nc(N[C@@H](CO)CC(C)C)nc(NS(C)(=O)=O)n2)cc1F (single isomer, unassigned)"
  pIC50: 6.02

I. COc1cc(C)c([C@H](C)Cc2nc(N[C@@H](CO)CC(C)C)nc(NS(C)(=O)=O)n2)cn1 (single isomer, unassigned)
II. COc1cccc(C(C)Cc2nc(N[C@@H](CO)CC(C)C)nc(NS(C)(=O)=O)n2)c1F (stereo partly shown)
Please state the entry with greater pIC50 among I and II . Label of pick, please.
II
(II: 7.11, I: 6.21)

A. COc1ccc([C@H](C)Cc2nc(N[C@@H](CO)CC(C)C)nc(NS(C)(=O)=O)n2)cc1F (single isomer, unassigned)
B. COc1cccc(C(C)Cc2nc(N[C@@H](CO)CC(C)C)nc(NS(C)(=O)=O)n2)c1 (stereo partly shown)
// which entry has the larger pIC50 value, A or B ? Selection: enter the item's label.
A
(A: 7.48, B: 6.95)
